- ASSAY_SYSTEM: Serine/threonine-protein kinase SIK3 (Homo sapiens, UniProt Q9Y2K2)
- Sequence (Q9Y2K2 whole entry, the tested form may be a part): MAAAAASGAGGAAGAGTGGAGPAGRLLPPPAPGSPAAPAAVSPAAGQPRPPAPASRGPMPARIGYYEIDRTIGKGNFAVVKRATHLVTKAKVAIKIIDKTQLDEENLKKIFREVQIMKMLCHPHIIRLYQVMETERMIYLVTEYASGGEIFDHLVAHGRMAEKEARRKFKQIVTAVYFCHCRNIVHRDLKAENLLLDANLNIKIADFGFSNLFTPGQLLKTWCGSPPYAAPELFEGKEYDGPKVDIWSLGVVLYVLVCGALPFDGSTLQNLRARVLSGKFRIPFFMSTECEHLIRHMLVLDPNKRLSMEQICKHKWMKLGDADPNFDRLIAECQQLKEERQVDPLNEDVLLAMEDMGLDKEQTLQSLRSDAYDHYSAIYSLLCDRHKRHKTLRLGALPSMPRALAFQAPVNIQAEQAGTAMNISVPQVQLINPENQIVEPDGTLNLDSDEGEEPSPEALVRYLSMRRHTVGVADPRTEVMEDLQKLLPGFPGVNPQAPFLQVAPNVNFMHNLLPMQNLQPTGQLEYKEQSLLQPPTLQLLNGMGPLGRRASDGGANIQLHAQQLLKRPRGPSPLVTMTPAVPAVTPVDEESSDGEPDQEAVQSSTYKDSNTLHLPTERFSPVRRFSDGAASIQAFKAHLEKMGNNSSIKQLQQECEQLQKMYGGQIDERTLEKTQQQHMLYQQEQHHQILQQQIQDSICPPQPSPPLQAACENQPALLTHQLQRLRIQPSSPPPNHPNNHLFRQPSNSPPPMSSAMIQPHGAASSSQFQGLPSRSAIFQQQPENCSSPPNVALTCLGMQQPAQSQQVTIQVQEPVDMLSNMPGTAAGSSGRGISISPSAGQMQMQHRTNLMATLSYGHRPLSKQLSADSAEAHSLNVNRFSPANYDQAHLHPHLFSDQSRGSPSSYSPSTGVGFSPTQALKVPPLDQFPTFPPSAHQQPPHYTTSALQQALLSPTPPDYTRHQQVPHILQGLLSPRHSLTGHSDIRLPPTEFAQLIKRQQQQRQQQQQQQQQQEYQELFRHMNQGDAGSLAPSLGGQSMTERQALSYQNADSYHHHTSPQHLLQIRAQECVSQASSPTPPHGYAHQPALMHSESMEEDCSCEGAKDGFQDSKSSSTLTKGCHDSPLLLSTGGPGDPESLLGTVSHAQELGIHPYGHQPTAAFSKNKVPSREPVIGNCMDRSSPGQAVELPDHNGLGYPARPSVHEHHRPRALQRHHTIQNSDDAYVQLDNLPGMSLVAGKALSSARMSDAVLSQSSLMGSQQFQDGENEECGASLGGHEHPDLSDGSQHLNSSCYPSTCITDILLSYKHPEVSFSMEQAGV
- ASSAY_COMMENT: Binding affinity to recombinant N-terminal His-FLAG-GST-tagged SIK3 (unknown origin) (59 to 365 residues) expressed in baculovirus infected Sf9 insect cells incubated for 1 hr by TR-FRET assay
PROPERTY_NAME: Kd (nM)
Provide only the numeric value, understood in nM.

Inquiry: Need Kd of "CO[C@@H]1[C@H](NCCOCCOCCOCCNC(=O)CCC2=[N+]3C(=Cc4c(C)cc(C)n4[B-]3(F)F)C=C2)C[C@H]2O[C@]1(C)n1c3ccccc3c3c4c(c5c6ccccc6n2c5c31)C(=O)NC4" , thanks.
Reply text: 10

----------
- ASSAY_SYSTEM: UniProt P12931
- Sequence (P12931 2-536 limits assumed): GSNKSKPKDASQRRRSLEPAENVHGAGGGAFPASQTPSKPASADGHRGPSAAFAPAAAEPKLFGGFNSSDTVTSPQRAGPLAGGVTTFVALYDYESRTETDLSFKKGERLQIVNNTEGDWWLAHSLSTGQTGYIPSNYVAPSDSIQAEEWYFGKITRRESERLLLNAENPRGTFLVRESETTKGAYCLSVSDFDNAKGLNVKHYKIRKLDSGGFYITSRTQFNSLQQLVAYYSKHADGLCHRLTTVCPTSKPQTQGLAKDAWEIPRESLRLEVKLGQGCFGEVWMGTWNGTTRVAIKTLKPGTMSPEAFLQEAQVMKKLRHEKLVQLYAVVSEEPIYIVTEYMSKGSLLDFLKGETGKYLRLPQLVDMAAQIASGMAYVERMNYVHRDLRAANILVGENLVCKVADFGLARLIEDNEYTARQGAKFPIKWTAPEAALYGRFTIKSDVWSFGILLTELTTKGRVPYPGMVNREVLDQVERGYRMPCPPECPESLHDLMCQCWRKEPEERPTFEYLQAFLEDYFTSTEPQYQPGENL
- ASSAY_COMMENT: Binding affinity to recombinant full-length N-terminal His-FLAG-GST-tagged SRC (unknown origin) expressed in baculovirus infected Sf9 insect cells incubated for 1 hr by TR-FRET assay
PROPERTY_NAME: Kd (µM)
Provide only the numeric value, understood in µM.

GIVEN_SMILES | ASSAY_SYSTEM | UNITS_TEXT | Kd
CO[C@@H]1[C@H](NCCOCCOCCOCCNC(=O)CCC2=[N+]3C(=Cc4c(C)cc(C)n4[B-]3(F)F)C=C2)C[C@H]2O[C@]1(C)n1c3ccccc3c3c4c(c5c6ccccc6n2c5c31)C(=O)NC4 | UniProt P12931 | µM | 0.452

Now take the following compound into account.
Inquiry: Need Kd of "CO[C@@H]1[C@H](N(C)CCOCCOCCOCCNC(=O)CCC2=[N+]3C(=Cc4c(C)cc(C)n4[B-]3(F)F)C=C2)C[C@H]2O[C@]1(C)n1c3ccccc3c3c4c(c5c6ccccc6n2c5c31)C(=O)NC4" , thanks.
Reply text: 0.572

----------
- ASSAY_SYSTEM: TGF-beta receptor type-2 (Homo sapiens, UniProt P37173)
- Sequence (P37173 whole entry, the tested form may be a part): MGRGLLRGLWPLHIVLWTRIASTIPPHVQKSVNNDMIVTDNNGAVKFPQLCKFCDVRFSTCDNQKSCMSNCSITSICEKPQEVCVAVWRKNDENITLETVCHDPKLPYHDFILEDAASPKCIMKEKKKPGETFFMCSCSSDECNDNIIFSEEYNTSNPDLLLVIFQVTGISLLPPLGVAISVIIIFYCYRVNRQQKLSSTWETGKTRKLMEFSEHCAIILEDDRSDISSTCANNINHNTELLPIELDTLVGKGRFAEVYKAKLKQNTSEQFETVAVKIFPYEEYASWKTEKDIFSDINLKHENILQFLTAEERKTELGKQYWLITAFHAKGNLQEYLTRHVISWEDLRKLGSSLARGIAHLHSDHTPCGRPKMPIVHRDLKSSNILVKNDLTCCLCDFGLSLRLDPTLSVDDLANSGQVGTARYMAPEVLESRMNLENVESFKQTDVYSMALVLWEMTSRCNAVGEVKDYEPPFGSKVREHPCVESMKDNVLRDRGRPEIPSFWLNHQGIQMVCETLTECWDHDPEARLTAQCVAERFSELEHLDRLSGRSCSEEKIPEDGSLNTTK
- ASSAY_COMMENT: Binding affinity to recombinant N-terminal His-FLAG-GST-tagged TGFBR2 (unknown origin) (194 to 567 residues) expressed in baculovirus infected Sf9 insect cells incubated for 1 hr by TR-FRET assay
PROPERTY_NAME: pKd
A value of pKd is the negative decimal logarithm of a concentration given in moles per litre.

Inquiry: Need pKd of "CO[C@@H]1[C@H](NCCOCCOCCOCCNC(=O)CCC2=[N+]3C(=Cc4c(C)cc(C)n4[B-]3(F)F)C=C2)C[C@H]2O[C@]1(C)n1c3ccccc3c3c4c(c5c6ccccc6n2c5c31)C(=O)NC4" , thanks.
Reply text: 6.07

----------
- ASSAY_SYSTEM: Mitogen-activated protein kinase kinase kinase 11 (Homo sapiens)
- Sequence (Q16584 whole entry, the tested form may be a part): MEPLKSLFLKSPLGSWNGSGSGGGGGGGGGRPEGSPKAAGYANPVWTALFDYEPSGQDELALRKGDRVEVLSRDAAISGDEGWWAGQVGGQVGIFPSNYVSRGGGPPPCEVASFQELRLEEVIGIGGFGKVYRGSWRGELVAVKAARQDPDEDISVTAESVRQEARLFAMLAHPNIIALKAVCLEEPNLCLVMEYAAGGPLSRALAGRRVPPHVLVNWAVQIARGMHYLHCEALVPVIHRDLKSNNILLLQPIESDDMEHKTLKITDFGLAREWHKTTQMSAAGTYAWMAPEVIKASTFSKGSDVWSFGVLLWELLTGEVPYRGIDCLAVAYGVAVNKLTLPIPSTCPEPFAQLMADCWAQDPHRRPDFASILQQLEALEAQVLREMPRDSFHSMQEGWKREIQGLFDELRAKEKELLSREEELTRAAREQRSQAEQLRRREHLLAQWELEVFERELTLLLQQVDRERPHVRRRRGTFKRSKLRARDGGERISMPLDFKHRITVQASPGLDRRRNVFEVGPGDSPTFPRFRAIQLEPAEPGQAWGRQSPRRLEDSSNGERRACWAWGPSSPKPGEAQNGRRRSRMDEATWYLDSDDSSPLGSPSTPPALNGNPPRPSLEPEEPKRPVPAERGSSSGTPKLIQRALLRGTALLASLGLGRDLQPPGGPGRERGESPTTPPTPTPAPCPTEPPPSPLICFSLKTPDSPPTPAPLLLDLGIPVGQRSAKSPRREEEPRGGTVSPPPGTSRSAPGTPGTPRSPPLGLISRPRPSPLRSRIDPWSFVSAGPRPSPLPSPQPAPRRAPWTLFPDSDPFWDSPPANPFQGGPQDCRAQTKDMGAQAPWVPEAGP
- ASSAY_COMMENT: Binding affinity to recombinant N-terminal His-FLAG-GST-tagged MAP3K11 (unknown origin) (99 to 398 residues) expressed in baculovirus infected Sf9 insect cells incubated for 1 hr by TR-FRET assay
PROPERTY_NAME: pKd
A value of pKd is the negative decimal logarithm of a concentration given in moles per litre.

GIVEN_SMILES | ASSAY_SYSTEM | pKd
CO[C@@H]1[C@H](N(C)CCOCCOCCOCCNC(=O)CCC2=[N+]3C(=Cc4c(C)cc(C)n4[B-]3(F)F)C=C2)C[C@H]2O[C@]1(C)n1c3ccccc3c3c4c(c5c6ccccc6n2c5c31)C(=O)NC4 | Mitogen-activated protein kinase kinase kinase 11 (Homo sapiens) | 8.40

Now take the following molecule into account.
Inquiry: Need pKd of "CO[C@@H]1[C@H](NCCOCCOCCOCCNC(=O)CCC2=[N+]3C(=Cc4c(C)cc(C)n4[B-]3(F)F)C=C2)C[C@H]2O[C@]1(C)n1c3ccccc3c3c4c(c5c6ccccc6n2c5c31)C(=O)NC4" , thanks.
Reply text: 8.52
